Sourced from the supplement of paper PMC5998384

Kindly supply the reported melting temperature values for the records listed here.
test system: HeLa Kyoto; experiment: melting temperature (median over replicates), in situ; higher = more thermally stable; conditions: cell cycle stage: mitosis
Report the figure in °C without appending any unit label.

**Q:** Would you kindly share the measured melting temperature for MLPLSIKDDEYKPPKFNLFGKISGWFRSILSDKTSRNLFFFLCLNLSFAFVELLYGIWSNCLGLISDSFHMFFDSTAILAGLAASVISKWRDNDAFSYGYVRAEVLAGFVNGLFLIFTAFFIFSEGVERALAPPDVHHERLLLVSILGFVVNLIGIFVFKHGGHGHSHGSGHGHSHSLFNGALDQAHGHVDHCHSHEVKHGAAHSHDHAHGHGHFHSHDGPSLKETTGPSRQILQGVFLHILADTLGSIGVIASAIMMQNFGLMIADPICSILIAILIVVSVIPLLRESVGILMQRTPPLLENSLPQCYQRVQQLQGVYSLQEQHFWTLCSDVYVGTLKLIVAPDADARWILSQTHNIFTQAGVRQLYVQIDFAAM [SLC30A7] ?
**A:** 55.4

**Q:** Next substance: CASKIN2
**A:** 48.8

**Q:** Next substance: MAGSYPEGAPAILADKRQQFGSRFLSDPARVFHHNAWDNVEWSEEQAAAAERKVQENSIQRVCQEKQVDYEINAHKYWNDFYKIHENGFFKDRHWLFTEFPELAPSQNQNHLKDWFLENKSEVCECRNNEDGPGLIMEEQHKCSSKSLEHKTQTPPVEENVTQKISDLEICADEFPGSSATYRILEVGCGVGNTVFPILQTNNDPGLFVYCCDFSSTAIELVQTNSEYDPSRCFAFVHDLCDEEKSYPVPKGSLDIIILIFVLSAVVPDKMQKAINRLSRLLKPGGMVLLRDYGRYDMAQLRFKKGQCLSGNFYVRGDGTRVYFFTQEELDTLFTTAGLEKVQNLVDRRLQVNRGKQLTMYRVWIQCKYCKPLLSSTS [METTL2B]
**A:** 48.9

**Q:** Next substance: MADQPKPISPLKNLLAGGFGGVCLVFVGHPLDTVKVRLQTQPPSLPGQPPMYSGTFDCFRKTLFREGITGLYRGMAAPIIGVTPMFAVCFFGFGLGKKLQQKHPEDVLSYPQLFAAGMLSGVFTTGIMTPGERIKCLLQIQASSGESKYTGTLDCAKKLYQEFGIRGIYKGTVLTLMRDVPASGMYFMTYEWLKNIFTPEGKRVSELSAPRILVAGGIAGIFNWAVAIPPDVLKSRFQTAPPGKYPNGFRDVLRELIRDEGVTSLYKGFNAVMIRAFPANAACFLGFEVAMKFLNWATPNL [SLC25A20]
**A:** 56.7

**Q:** Next substance: MGCDGGTIPKRHELVKGPKKVEKVDKDAELVAQWNYCTLSQEILRRPIVACELGRLYNKDAVIEFLLDKSAEKALGKAASHIKSIKNVTELKLSDNPAWEGDKGNTKGDKHDDLQRARFICPVVGLEMNGRHRFCFLRCCGCVFSERALKEIKAEVCHTCGAAFQEDDVIMLNGTKEDVDVLKTRMEERRLRAKLEKKTKKPKAAESVSKPDVSEEAPGPSKVKTGKPEEASLDSREKKTNLAPKSTAMNESSSGKAGKPPCGATKRSIADSEESEAYKSLFTTHSSAKRSKEESAHWVTHTSYCF [RTFDC1]
**A:** 50.2

**Q:** Next substance: MAATGANAEKAESHNDCPVRLLNPNIAKMKEDILYHFNLTTSRHNFPALFGDVKFVCVGGSPSRMKAFIRCVGAELGLDCPGRDYPNICAGTDRYAMYKVGPVLSVSHGMGIPSISIMLHELIKLLYYARCSNVTIIRIGTSGGIGLEPGTVVITEQAVDTCFKAEFEQIVLGKRVIRKTDLNKKLVQELLLCSAELSEFTTVVGNTMCTLDFYEGQGRLDGALCSYTEKDKQAYLEAAYAAGVRNIEMESSVFAAMCSACGLQAAVVCVTLLNRLEGDQISSPRNVLSEYQQRPQRLVSYFIKKKLSKA [UPP1]
**A:** 56.3

**Q:** Next substance: MAAFAVEPQGPALGSEPMMLGSPTSPKPGVNAQFLPGFLMGDLPAPVTPQPRSISGPSVGVMEMRSPLLAGGSPPQPVVPAHKDKSGAPPVRSIYDDISSPGLGSTPLTSRRQPNISVMQSPLVGVTSTPGTGQSMFSPASIGQPRKTTLSPAQLDPFYTQGDSLTSEDHLDDSWVTVFGFPQASASYILLQFAQYGNILKHVMSNTGNWMHIRYQSKLQARKALSKDGRIFGESIMIGVKPCIDKSVMESSDRCALSSPSLAFTPPIKTLGTPTQPGSTPRISTMRPLATAYKASTSDYQVISDRQTPKKDESLVSKAMEYMFGW [NUP35]
**A:** 52

**Q:** Next substance: MEALLLGAGLLLGAYVLVYYNLVKAPPCGGMGNLRGRTAVVTGANSGIGKMTALELARRGARVVLACRSQERGEAAAFDLRQESGNNEVIFMALDLASLASVRAFATAFLSSEPRLDILIHNAGISSCGRTREAFNLLLRVNHIGPFLLTHLLLPCLKACAPSRVVVVASAAHCRGRLDFKRLDRPVVGWRQELRAYADTKLANVLFARELANQLEATGVTCYAAHPGPVNSELFLRHVPGWLRPLLRPLAWLVLRAPRGGAQTPLYCALQEGIEPLSGRYFANCHVEEVPPAARDDRAAHRLWEASKRLAGLGPGEDAEPDEDPQSEDSEAPSSLSTPHPEEPTVSQPYPSPQSSPDLSKMTHRIQAKVEPEIQLS [DHRS13]
**A:** 50

**Q:** Next substance: MSKSESPKEPEQLRKLFIGGLSFETTDESLRSHFEQWGTLTDCVVMRDPNTKRSRGFGFVTYATVEEVDAAMNARPHKVDGRVVEPKRAVSREDSQRPGAHLTVKKIFVGGIKEDTEEHHLRDYFEQYGKIEVIEIMTDRGSGKKRGFAFVTFDDHDSVDKIVIQKYHTVNGHNCEVRKALSKQEMASASSSQRGRSGSGNFGGGRGGGFGGNDNFGRGGNFSGRGGFGGSRGGGGYGGSGDGYNGFGNDGGYGGGGPGYSGGSRGYGSGGQGYGNQGSGYGGSGSYDSYNNGGGGGFGGGSGSNFGGGGSYNDFGNYNNQSSNFGPMKGGNFGGRSSGPYGGGGQYFAKPRNQGGYGGSSSSSSYGSGRRF [HNRNPA1]
**A:** 50.1

---

test system: HeLa Kyoto; assay: melting temperature (median over replicates), in situ; higher = more thermally stable; conditions: cell cycle stage: mitosis;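 further: HeLa Kyoto cells synchronized by double thymidine or nocodazole block, proteins quantified by TMT10plex mass spectrometry, three independent biological replicates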
Observable: melting temperature (°C)
Report the figure in °C without appending any unit label.

**Q:** Would you kindly share the measured melting temperature for MASYPYRQGCPGAAGQAPGAPPGSYYPGPPNSGGQYGSGLPPGGGYGGPAPGGPYGPPAGGGPYGHPNPGMFPSGTPGGPYGGAAPGGPYGQPPPSSYGAQQPGLYGQGGAPPNVDPEAYSWFQSVDSDHSGYISMKELKQALVNCNWSSFNDETCLMMINMFDKTKSGRIDVYGFSALWKFIQQWKNLFQQYDRDRSGSISYTELQQALSQMGYNLSPQFTQLLVSRYCPRSANPAMQLDRFIQVCTQLQVLTEAFREKDTAVQGNIRLSFEDFVTMTASRML [PEF1] ?
**A:** 53.2

**Q:** Next sequence: MEAVATATAAKEPDKGCIEPGPGHWGELSRTPVPSKPQDKVEAAEATPVALDSDTSGAENAAVSAMLHAVAASRLPVCSQQQGEPDLTEHEKVAILAQLYHEKPLVFLERFRTGLREEHLACFGHVRGDHRADFYCAEVARQGTARPRTLRTRLRNRRYAALRELIQGGEYFSDEQMRFRAPLLYEQYIGQYLTQEELSARTPTHQPPKPGSPGRPACPLSNLLLQSYEERELQQRLLQQQEEEEACLEEEEEEEDSDEEDQRSGKDSEAWVPDSEERLILREEFTSRMHQRFLDGKDGDFDYSTVDDNPDFDNLDIVARDEEERYFDEEEPEDAPSPELDGD [CCDC97]
**A:** 50.8

**Q:** Next sequence: MATGDLKRSLRNLEQVLRLLNYPEEVDCVGLIKGDPAASLPIISYSFTSYSPYVTELIMESNVELIAKNDLRFIDAVYKLLRDQFNYKPILTKKQFIQCGFAEWKIQIVCDILNCVMKKHKELSSLQKIPSQQRKKISSGKSEPPLGNEKISAEAVGVDISGRFMTSGKKKAVVIRHLYNEDNVDISEDTLSPITDVNEAVDVSDLNATEIKMPEVKVPEIKAEQQDVNVNPEITALQTMLAECQENLKKLTSIEKRLDCLEQKMKGKVMVDENTWTNLLSRVTLLETEMLLSKKNDEFIEFNEVSEDYASCSDMDLLNPHRKSEVERPASIPLSSGYSTASSDSTPRASTVNYCGLNEISEETTIQKMERMKKMFEETAELLKCPNHYL [CEP44]
**A:** 49.3

**Q:** Next sequence: MEATTAGVGRLEEEALRRKERLKALREKTGRKDKEDGEPKTKHLREEEEEGEKHRELRLRNYVPEDEDLKKRRVPQAKPVAVEEKVKEQLEAAKPEPVIEEVDLANLAPRKPDWDLKRDVAKKLEKLKKRTQRAIAELIRERLKGQEDSLASAVDAATEQKTCDSD [CCDC12]
**A:** 53.3

**Q:** Next sequence: MASKRALVILAKGAEEMETVIPVDVMRRAGIKVTVAGLAGKDPVQCSRDVVICPDASLEDAKKEGPYDVVVLPGGNLGAQNLSESAAVKEILKEQENRKGLIAAICAGPTALLAHEIGFGSKVTTHPLAKDKMMNGGHYTYSENRVEKDGLILTSRGPGTSFEFALAIVEALNGKEVAAQVKAPLVLKD [PARK7]
**A:** 57.4

**Q:** Next sequence: MNILPKKSWHVRNKDNVARVRRDEAQAREEEKERERRVLLAQQEARTEFLRKKARHQNSLPELEAAEAGAPGSGPVDLFRELLEEGKGVIRGNKEYKEEKRQEKERQEKALGILTYLGQSAAEAQTQPPWYQLPPGRGGPPPGPAPDEKIKSRLDPLREMQKHLGKKRQHGGDEGSRSRKEKEGSEKQRPKEPPSLDQLRAERLRREAAERSRAEALLARVQGRALQEGQPEEDETDDRRRRYNSQFNPQLARRPRQQDPHLTH [LENG1]
**A:** 52.5

**Q:** Next sequence: MAGAGPTMLLREENGCCSRRQSSSSAGDSDGEREDSAAERARQQLEALLNKTMRIRMTDGRTLVGCFLCTDRDCNVILGSAQEFLKPSDSFSAGEPRVLGLAMVPGHHIVSIEVQRESLTGPPYL [NAA38]
**A:** 52.4

**Q:** Next sequence: MSAFDTNPFADPVDVNPFQDPSVTQLTNAPQGGLAEFNPFSETNAATTVPVTQLPGSSQPAVLQPSVEPTQPTPQAVVSAAQAGLLRQQEELDRKAAELERKERELQNTVANLHVRQNNWPPLPSWCPVKPCFYQDFSTEIPADYQRICKMLYYLWMLHSVTLFLNLLACLAWFSGNSSKGVDFGLSILWFLIFTPCAFLCWYRPIYKAFRSDNSFSFFVFFFVFFCQIGIYIIQLVGIPGLGDSGWIAALSTLDNHSLAISVIMMVVAGFFTLCAVLSVFLLQRVHSLYRRTGASFQQAQEEFSQGIFSSRTFHRAASSAAQGAFQGN [SCAMP2]
**A:** 56.6

**Q:** Next sequence: MENSQLCKLFIGGLNVQTSESGLRGHFEAFGTLTDCVVVVNPQTKRSRCFGFVTYSNVEEADAAMAASPHAVDGNTVELKRAVSREDSARPGAHAKVKKLFVGGLKGDVAEGDLIEHFSQFGTVEKAEIIADKQSGKKRGFGFVYFQNHDAADKAAVVKFHPIQGHRVEVKKAVPKEDIYSGGGGGGSRSSRGGRGGRGRGGGRDQNGLSKGGGGGYNSYGGYGGGGGGGYNAYGGGGGGSSYGGSDYGNGFGGFGSYSQHQSSYGPMKSGGGGGGGGSSWGGRSNSGPYRGGYGGGGGYGGSSF [HNRNPA0]
**A:** 47

**Q:** Next sequence: MAQKRPACTLKPECVQQLLVCSQEAKKSAYCPYSHFPVGAALLTQEGRIFKGCNIENACYPLGICAERTAIQKAVSEGYKDFRAIAIASDMQDDFISPCGACRQVMREFGTNWPVYMTKPDGTYIVMTVQELLPSSFGPEDLQKTQ [CDA]
**A:** 54

**Q:** Next sequence: MAHAPARCPSARGSGDGEMGKPRNVALITGITGQDGSYLAEFLLEKGYEVHGIVRRSSSFNTGRIEHLYKNPQAHIEGNMKLHYGDLTDSTCLVKIINEVKPTEIYNLGAQSHVKISFDLAEYTADVDGVGTLRLLDAVKTCGLINSVKFYQASTSELYGKVQEIPQKETTPFYPRSPYGAAKLYAYWIVVNFREAYNLFAVNGILFNHESPRRGANFVTRKISRSVAKIYLGQLECFSLGNLDAKRDWGHAKDYVEAMWLMLQNDEPEDFVIATGEVHSVREFVEKSFLHIGKTIVWEGKNENEVGRCKETGKVHVTVDLKYYRPTEVDFLQGDCTKAKQKLNWKPRVAFDELVREMVHADVELMRTNPNA [GMDS]
**A:** 57.4
